Reported Cl values for a set of compounds
# Organism: Rattus norvegicus
# ASSAY: Open TG-GATES - Regimen: Single
# Format: toxicity, organism-based, Sprague-Dawley
# Set-up: regimen Single, gender Male, age 6 weeks
# MEASUREMENT CONTEXT: in vivo, po, 0 mg/kg, 3 h, tissue Plasma, route gavage, dose level Control
ENDPOINT LABEL: Cl (meq/L)

CC(=O)N1CCN(c2ccc(OCC3COC(Cn4ccnc4)(c4ccc(Cl)cc4Cl)O3)cc2)CC1 (stereo not given); 104.8
CCN(CC)N=O; 102
O=C(O)COc1nn(Cc2ccccc2)c2ccccc12; 103.8
CC(=O)Nc1ccc2c(c1)Cc1ccccc1-2; 103.2
CC[C@@H](CO)NCCN[C@@H](CC)CO; 106.6

---

# Organism: Rattus norvegicus
# ASSAY: Open TG-GATES - Regimen: Single
# Assay type: toxicity, organism-based, Sprague-Dawley
# Parameters: regimen Single, gender Male, age 6 weeks
# MEASUREMENT CONTEXT: in vivo, po, 0 mg/kg, 24 h, tissue Plasma, route gavage, dose level Control
Reported BUN values for a set of compounds
ENDPOINT LABEL: BUN (mg/dL)

CC(=O)N1CCN(c2ccc(OCC3COC(Cn4ccnc4)(c4ccc(Cl)cc4Cl)O3)cc2)CC1 (stereo unspecified) [KETOCONAZOLE]; 16.4
CCN(CC)N=O [N-NITROSODIETHYLAMINE]; 14
O=C(O)COc1nn(Cc2ccccc2)c2ccccc12 [BENDAZAC]; 17.8
CC(=O)Nc1ccc2c(c1)Cc1ccccc1-2 [2-ACETYLAMINOFLUORENE]; 14.8
CC(CCc1ccccc1)NCC(O)c1ccc(O)c(C(N)=O)c1 (stereo unspecified) [LABETALOL]; 15.8
CC[C@@H](CO)NCCN[C@@H](CC)CO [ETHAMBUTOL]; 17.2

---

Reported PL values for a set of molecules
# Organism: Rattus norvegicus
# ASSAY: Open TG-GATES - Regimen: Daily Repeat
# Type: toxicity, organism-based, Sprague-Dawley
# Set-up: regimen Daily Repeat, gender Male, age 6 weeks
# MEASUREMENT CONTEXT: in vivo, po, 0 mg/kg, […], tissue Plasma, route gavage, dose level Control, time 28 day
ENDPOINT LABEL: PL

CCN(CC)N=O [N-NITROSODIETHYLAMINE]; 135.2 mg/dL
CC(CCc1ccccc1)NCC(O)c1ccc(O)c(C(N)=O)c1 (stereo not drawn) [LABETALOL]; 151.2 mg/dL
CC(N)=O [ACETAMIDE]; 133.2 mg/dL
CC[C@@H](CO)NCCN[C@@H](CC)CO [ETHAMBUTOL]; 143.6 mg/dL
CC(=O)N1CCN(c2ccc(OCC3COC(Cn4ccnc4)(c4ccc(Cl)cc4Cl)O3)cc2)CC1 (stereo not drawn) [KETOCONAZOLE]; 144.4 mg/dL
CC(C)Cc1ccc(C(C)C(=O)O)cc1 (stereo not drawn) [IBUPROFEN]; 144.6 mg/dL
O=C(O)COc1nn(Cc2ccccc2)c2ccccc12 [BENDAZAC]; 142.8 mg/dL
CC(=O)Nc1ccc2c(c1)Cc1ccccc1-2 [2-ACETYLAMINOFLUORENE]; 143.4 mg/dL

---

# Species: Rattus norvegicus
# ASSAY: Open TG-GATES - Regimen: Daily Repeat
# Assay type: toxicity, organism-based, Sprague-Dawley
# Design: regimen Daily Repeat, gender Male, age 6 weeks
# MEASUREMENT CONTEXT: in vivo, po, 0 mg/kg, 72 h, tissue Plasma, route gavage, dose level Control, time 3 day
Reported TC values for a set of molecules
ENDPOINT LABEL: TC (mg/dL)

CC(CCc1ccccc1)NCC(O)c1ccc(O)c(C(N)=O)c1 (stereo not drawn); 85.6
CCN(CC)N=O; 82.6
CC(C)Cc1ccc(C(C)C(=O)O)cc1 (stereo not drawn); 77
CC(N)=O [ACETAMIDE]; 85.2
CC(=O)Nc1ccc2c(c1)Cc1ccccc1-2; 81.8
CC(=O)N1CCN(c2ccc(OCC3COC(Cn4ccnc4)(c4ccc(Cl)cc4Cl)O3)cc2)CC1 (stereo not drawn); 71
CC[C@@H](CO)NCCN[C@@H](CC)CO; 78.4
O=C(O)COc1nn(Cc2ccccc2)c2ccccc12; 78.2

---

# Species on record: Rattus norvegicus
# ASSAY: Open TG-GATES - Regimen: Single
# Type: toxicity, organism-based, Sprague-Dawley
# Design: regimen Single, gender Male, age 6 weeks
# MEASUREMENT CONTEXT: in vivo, po, 0 mg/kg, 6 h, route gavage, dose level Control
ENDPOINT LABEL: TERMINAL_BW

O=C(O)COc1nn(Cc2ccccc2)c2ccccc12; 209.6 g
CC(CCc1ccccc1)NCC(O)c1ccc(O)c(C(N)=O)c1 (configuration not stated); 213.8 g
CCN(CC)N=O; 223.5 g
CC[C@@H](CO)NCCN[C@@H](CC)CO; 224 g
CC(=O)Nc1ccc2c(c1)Cc1ccccc1-2; 219.6 g
CC(C)Cc1ccc(C(C)C(=O)O)cc1 (configuration not stated); 200 g
CC(=O)N1CCN(c2ccc(OCC3COC(Cn4ccnc4)(c4ccc(Cl)cc4Cl)O3)cc2)CC1 (configuration not stated); 204.2 g

---

# Species: Rattus norvegicus
# ASSAY: Open TG-GATES - Regimen: Single
# Format: toxicity, organism-based, Sprague-Dawley
# Set-up: regimen Single, gender Male, age 6 weeks
# MEASUREMENT CONTEXT: in vivo, po, 0 mg/kg, 6 h, tissue Plasma, route gavage, dose level Control
Reported LDH values for a set of molecules
ENDPOINT LABEL: LDH (IU/L)

CCN(CC)N=O; 193
O=C(O)COc1nn(Cc2ccccc2)c2ccccc12; 75.2
CC(CCc1ccccc1)NCC(O)c1ccc(O)c(C(N)=O)c1 (configuration not stated); 52.4
CC(C)Cc1ccc(C(C)C(=O)O)cc1 (configuration not stated); 236.2
CC(=O)N1CCN(c2ccc(OCC3COC(Cn4ccnc4)(c4ccc(Cl)cc4Cl)O3)cc2)CC1 (configuration not stated); 197.4
CC[C@@H](CO)NCCN[C@@H](CC)CO; 176.2
CC(=O)Nc1ccc2c(c1)Cc1ccccc1-2; 166.6

---

# Organism: Rattus norvegicus
# ASSAY: Open TG-GATES - Regimen: Daily Repeat
# Assay type: toxicity, organism-based, Sprague-Dawley
# Design: regimen Daily Repeat, gender Male, age 6 weeks
# MEASUREMENT CONTEXT: in vivo, po, 0 mg/kg, […], tissue Plasma, route gavage, dose level Control, time 7 day
Reported ALP values for a set of molecules
ENDPOINT LABEL: ALP (IU/L)

CC(CCc1ccccc1)NCC(O)c1ccc(O)c(C(N)=O)c1 (stereo not drawn) [LABETALOL]; 1548.4
CC(C)Cc1ccc(C(C)C(=O)O)cc1 (stereo not drawn) [IBUPROFEN]; 1943
CC(=O)Nc1ccc2c(c1)Cc1ccccc1-2 [2-ACETYLAMINOFLUORENE]; 914.8
CCN(CC)N=O [N-NITROSODIETHYLAMINE]; 863.2
CC(=O)N1CCN(c2ccc(OCC3COC(Cn4ccnc4)(c4ccc(Cl)cc4Cl)O3)cc2)CC1 (stereo not drawn) [KETOCONAZOLE]; 1766.8
CC[C@@H](CO)NCCN[C@@H](CC)CO [ETHAMBUTOL]; 1523.4
O=C(O)COc1nn(Cc2ccccc2)c2ccccc12 [BENDAZAC]; 804.6
CC(N)=O [ACETAMIDE]; 1570

---

# Organism: Rattus norvegicus
# ASSAY: Open TG-GATES - Regimen: Daily Repeat
# Type: toxicity, organism-based, Sprague-Dawley
# Design: regimen Daily Repeat, gender Male, age 6 weeks
# MEASUREMENT CONTEXT: in vivo, po, 0 mg/kg, […], tissue Plasma, route gavage, dose level Control, time 28 day
# label = Y if TBIL >= 0.02 mg/dL else N

CCN(CC)N=O; Y
CC(=O)N1CCN(c2ccc(OCC3COC(Cn4ccnc4)(c4ccc(Cl)cc4Cl)O3)cc2)CC1 (stereo not drawn); N
CC(C)Cc1ccc(C(C)C(=O)O)cc1 (stereo not drawn); N
CC(=O)Nc1ccc2c(c1)Cc1ccccc1-2; Y
CC[C@@H](CO)NCCN[C@@H](CC)CO; N
CC(CCc1ccccc1)NCC(O)c1ccc(O)c(C(N)=O)c1 (stereo not drawn); Y
O=C(O)COc1nn(Cc2ccccc2)c2ccccc12; Y
CC(N)=O [ACETAMIDE]; N

---

# Species: Rattus norvegicus
# ASSAY: Open TG-GATES - Regimen: Daily Repeat
# Assay type: toxicity, organism-based, Sprague-Dawley
# Parameters: regimen Daily Repeat, gender Male, age 6 weeks
# MEASUREMENT CONTEXT: in vivo, po, 0 mg/kg, […], tissue Liver, route gavage, dose level Control, time 14 day
ENDPOINT LABEL: LIVER (g)

CC(CCc1ccccc1)NCC(O)c1ccc(O)c(C(N)=O)c1 (stereo unspecified) [LABETALOL]; 13.9
CC(N)=O [ACETAMIDE]; 14.7
O=C(O)COc1nn(Cc2ccccc2)c2ccccc12 [BENDAZAC]; 15.1
CCN(CC)N=O [N-NITROSODIETHYLAMINE]; 13.5
CC(=O)Nc1ccc2c(c1)Cc1ccccc1-2 [2-ACETYLAMINOFLUORENE]; 14.9
CC[C@@H](CO)NCCN[C@@H](CC)CO [ETHAMBUTOL]; 14.5
